B1: RPAIN (parent)
chain: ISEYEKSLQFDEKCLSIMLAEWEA

variants of: B1; assay: protein stability index of a GFP-peptide fusion (GPS, HEK-293T) (PSI 1-6); higher = more stable; settings: c terminus: a fixed tail appended;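 note: lentivirally expressed fusions sorted by FACS into six bins by GFP to DsRed ratio, PSI derived from sequencing read proportions per bin multiplied by bin number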
Each record gets a class by protein stability index: lower level: < 2; middle level: ≥ 2 and < 3; upper level: ≥ 3

{"columns": ["record_sequence", "assigned_category"],
 "data": [
  ["ISEYEKSLQFDEKCLSIMCAEWEA [L19C]", "middle level"]
]}

Sort ISEYEKSLCFDEKCLSIMLAEWEA [Q9C] into one of the categories.
lower level

Sort ISEYEKSLQFDEKCLSIMLCEWEA [A20C] into one of the categories.
lower level

Sort ISEYESSLQFDEKCLSIMLAEWEA [K6S] into one of the categories.
lower level
